The reported numbers originate from patent US12304912B2.

Assay: Microsomal stability assay, human liver microsomes (HLM)
Format: in vitro ADME
Conditions: 0.5 mg/mL protein, 1 μM substrate, 37° C.
The following molecules are shown together with reported microsomal CLint at 1 μM values.
Reply numerically in µL/min/mg, unit not repeated.

Solved cases below.
Cn1nc(C(F)(F)F)cc1-c1c[nH]c(C2COc3ccc(Oc4ccnc5c4CCC(=O)N5)cc3C2)n1 (stereo not shown) [Compound 107] :: 30.3
O=C(NC1CC1)c1cc(Oc2ccc3c(c2)CC(c2nc(-c4ccccc4)c[nH]2)CO3)ccn1 (stereo not shown) [Compound 158] :: 21.3
O=C(Nc1cc(Oc2ccc3c(c2)CC(c2nc(-c4ccccc4)c[nH]2)CO3)ccn1)C1CC1(F)F (stereo not shown) [Compound 137] :: 32.6

Consider the record given below.
[in] For the molecule c1ccc(-c2c[nH]c(C3COc4ccc(Oc5ccnc(Nc6nccs6)c5)cc4C3)n2)cc1 (stereo not shown) [Compound 141] , what microsomal CLint at 1 μM is on record?
[out] 1

----------
Assay: Plasma protein binding assay, human plasma (hPPB)
Type: in vitro ADME
Conditions: 5 μM, equilibrium dialysis 4 hours at 37° C.
The following compounds are shown together with reported hPPB (% free) values.
Reply numerically in % free, unit not repeated.

Solved cases below.
O=C(Nc1cc(Oc2ccc3c(c2)CC(c2nc(-c4ccccc4)c[nH]2)CO3)ccn1)C1CC1 (racemic) :: 0.2
O=C1CCc2c(Oc3ccc4c(c3)CC(c3nc(C5CCOCC5)c[nH]3)CO4)ccnc2N1 (centres unmarked) :: 2.6
CC(=O)Nc1cc(Oc2ccc3c(c2)CC(c2nc(-c4ccccc4)c[nH]2)CO3)ccn1 (centres unmarked) :: 0.5
Cc1cc(-c2c[nH]c(C3COc4ccc(Oc5ccnc6c5CCC(=O)N6)cc4C3)n2)n(C(C)C)n1 (centres unmarked) :: 1.4
Cc1cc(-c2c[nH]c(C3COc4ccc(Oc5ccnc6c5CCC(=O)N6)cc4C3)n2)n(C)n1 (centres unmarked) :: 2.4
O=C1CCc2c(Oc3ccc4c(c3)CC(c3nc(-c5cccnc5C(F)(F)F)c[nH]3)CO4)ccnc2N1 (centres unmarked) :: 0.9
O=C(CN1CC(O)C1)Nc1cc(Oc2ccc3c(c2)CC(c2nc(-c4ccccc4)c[nH]2)CO3)ccn1 (centres unmarked) :: 0.39
CCn1nc(C)cc1-c1c[nH]c(C2COc3ccc(Oc4ccnc5c4CCC(=O)N5)cc3C2)n1 (centres unmarked) :: 2.7

[in] For the compound CCc1cc(-c2c[nH]c(C3COc4ccc(Oc5ccnc6c5CCC(=O)N6)cc4C3)n2)ccn1 (centres unmarked) , what hPPB (% free) is on record?
[out] 1.3

[in] Input O=C(Nc1cc(Oc2ccc3c(c2)CC(c2nc(-c4ccccc4)c[nH]2)CO3)ccn1)C1CC1(F)F (centres unmarked)
[out] 0.1

[in] Input O=C(Nc1cc(Oc2ccc3c(c2)CC(c2nc(-c4ccc(F)cc4)c[nH]2)CO3)ccn1)C1CC1 (centres unmarked)
[out] 0.1

----------
Assay: Microsomal stability assay, mouse liver microsomes (MLM)
Type: in vitro ADME
Settings: 0.5 mg/mL protein, 1 μM substrate, 37° C.
Measurement kind: microsomal CLint at 1 μM (µL/min/mg)
Reply numerically in µL/min/mg, unit not repeated.

Solved cases below.
Cn1nc(C(F)(F)F)cc1-c1c[nH]c(C2COc3ccc(Oc4ccnc5c4CCC(=O)N5)cc3C2)n1 (stereo not shown) :: 12.5
CCc1cc(-c2c[nH]c(C3COc4ccc(Oc5ccnc6c5CCC(=O)N6)cc4C3)n2)n(C)n1 (stereo not shown) :: 26.9
O=C1CCc2c(Oc3ccc4c(c3)CC(c3nc5ccncc5[nH]3)CO4)ccnc2N1 (stereo not shown) :: 72.4
O=C(CN1CC[C@@H](O)C1)Nc1cc(Oc2ccc3c(c2)CC(c2nc(-c4ccccc4)c[nH]2)CO3)ccn1 (stereo partly shown) :: 147
O=C1CCc2c(Oc3ccc4c(c3)CN(c3nc5cc(C(F)(F)F)ccc5[nH]3)CC4)ccnc2N1 :: 4.5

[in] For the compound O=C1CCc2c(Oc3ccc4c(c3)CC(c3nc(C5CCOCC5)c[nH]3)CO4)ccnc2N1 (stereo not shown) , what microsomal CLint at 1 μM is on record?
[out] 9.3

[in] Input CC(=O)Nc1cc(Oc2ccc3c(c2)CC(c2nc(-c4ccccc4)c[nH]2)CO3)ccn1 (stereo not shown)
[out] 152

----------
The following compounds are shown together with reported log10 of microsomal CLint at 1 μM values.
Test: Microsomal stability assay, human liver microsomes (HLM)
Type: in vitro ADME
Conditions: 0.5 mg/mL protein, 1 μM substrate, 37° C.
Values are log10 of microsomal CLint at 1 μM in µL/min/mg.

Solved cases below.
O=C1CCc2c(Oc3ccc4c(c3)CC(c3nc(-c5ccc(C(F)(F)F)nc5)c[nH]3)CO4)ccnc2N1 (stereo not drawn) [Compound 127] :: 1.59
Cc1c[nH]c(-c2cc(Oc3ccc4c(c3)CC(c3nc(-c5ccccc5)c[nH]3)CO4)ccn2)n1 (stereo not drawn) [Compound 143] :: 1.56
CN1CCC(C(=O)Nc2cc(Oc3ccc4c(c3)CC(c3nc(-c5ccccc5)c[nH]3)CO4)ccn2)CC1 (stereo not drawn) [Compound 147] :: 1.02

[in] For the compound O=C(Nc1cc(Oc2ccc3c(c2)CC(c2nc(-c4ccccc4)c[nH]2)CO3)ncn1)C1CC1 (stereo not drawn) [Compound 151] , what log10 of microsomal CLint at 1 μM is on record?
[out] 1.26

[in] Input CC1CC1C(=O)Nc1cc(Oc2ccc3c(c2)CC(c2nc(-c4ccccc4)c[nH]2)CO3)ccn1 (stereo not drawn) [Compound 157]
[out] 1.55

[in] Input O=C1CCc2c(Oc3ccc4c(c3)CC(c3nc(-c5cncc(C(F)F)c5)c[nH]3)CO4)ccnc2N1 (stereo not drawn) [Compound 105]
[out] 1.39

[in] Input O=C1CCc2c(Oc3ccc4c(c3)CN(c3nc5cc(C(F)(F)F)ccc5[nH]3)CC4)ccnc2N1 [Compound 160]
[out] 0.43

[in] Input Cc1cc(-c2c[nH]c(C3COc4ccc(Oc5ccnc6c5CCC(=O)N6)cc4C3)n2)n(C)n1 (stereo not drawn) [Compound 106]
[out] 1.02

----------
Assay: Microsomal stability assay, mouse liver microsomes (MLM)
Format: in vitro ADME
Settings: 0.5 mg/mL protein, 1 μM substrate
Binned microsomal CLint at 1 μM; ranges: A: < 20 µL/min/mg; B: ≥ 20 µL/min/mg and < 40 µL/min/mg; C: ≥ 40 µL/min/mg

O=C1CCc2c(Oc3ccc4c(c3)CC(c3cc(-c5ccc(C(F)(F)F)cc5)n[nH]3)CO4)ccnc2N1 (stereo not drawn) :: A

[in] Sort into band: O=C1CCc2c(Oc3ccc4c(c3)CC(c3nc(-c5ccccc5F)c[nH]3)CO4)ccnc2N1 (stereo not drawn)
[out] B

[in] Input Cc1ccc(-c2c[nH]c(C3COc4ccc(Oc5ccnc6c5CCC(=O)N6)cc4C3)n2)cc1 (stereo not drawn)
[out] A

[in] Input O=C1CCc2c(Oc3ccc4c(c3)CC(c3cc(-c5cccc(Cl)c5)n[nH]3)CO4)ccnc2N1 (stereo not drawn)
[out] A

[in] Input O=C1CCc2c(Oc3ccc4c(c3)CC(c3cc(-c5ccc(Cl)cc5)n[nH]3)CO4)ccnc2N1 (stereo not drawn)
[out] A

[in] Input CC(C)NCc1cc(-c2c[nH]c(C3COc4ccc(Oc5ccnc6c5CCC(=O)N6)cc4C3)n2)cc(C(F)(F)F)c1 (stereo not drawn)
[out] A

[in] Input O=C1CCc2c(Oc3ccc4c(c3)CC(c3nc5cc(C(F)(F)F)ncc5[nH]3)CO4)ccnc2N1 (racemic)
[out] A

[in] Input COc1ccccc1-c1cc(C2COc3ccc(Oc4ccnc5c4CCC(=O)N5)cc3C2)[nH]n1 (stereo not drawn)
[out] B

[in] Input N#Cc1ccc(-c2c[nH]c(C3COc4ccc(Oc5ccnc6c5CCC(=O)N6)cc4C3)n2)cc1 (stereo not drawn)
[out] B

[in] Input O=C1CCc2c(Oc3ccc4c(c3)CC(c3cc(-c5ccccc5C(F)(F)F)n[nH]3)CO4)ccnc2N1 (stereo not drawn)
[out] C

[in] Input Cc1cccc(-c2c[nH]c(C3COc4ccc(Oc5ccnc6c5CCC(=O)N6)cc4C3)n2)c1 (stereo not drawn)
[out] C

[in] Input N#Cc1ccc2[nH]c(C3COc4ccc(Oc5ccnc6c5CCC(=O)N6)cc4C3)nc2c1 (stereo not drawn)
[out] C

[in] Input Cc1cc2nc(C3COc4ccc(Oc5ccnc6c5CCC(=O)N6)cc4C3)[nH]c2cc1C (stereo not drawn)
[out] C

[in] Input COc1ccc(-c2cc(C3COc4ccc(Oc5ccnc6c5CCC(=O)N6)cc4C3)[nH]n2)cc1 (stereo not drawn)
[out] B

[in] Input `O=C1CCc2c(Oc3ccc4c(c3)CN(C(=O)NCc3ccccc3)CC4)ccnc2N1`
[out] B

----------
Assay: Microsomal stability assay, human liver microsomes (HLM)
Type: in vitro ADME
Conditions: 0.5 mg/mL protein, 1 μM substrate, 37° C.
Measurement kind: microsomal CLint at 1 μM (µL/min/mg)
Reply numerically in µL/min/mg, unit not repeated.

O=C(CN1CCCC1)Nc1cc(Oc2ccc3c(c2)CC(c2nc(-c4ccccc4)c[nH]2)CO3)ccn1 (stereo not shown) :: 29

[in] For the compound O=C(Nc1cc(Oc2ccc3c(c2)CC(c2nc(-c4ccccc4)c[nH]2)CO3)ccn1)C1CC(F)(F)C1 (stereo not shown) , what microsomal CLint at 1 μM is on record?
[out] 99.8

[in] Input CCc1cc(-c2c[nH]c(C3COc4ccc(Oc5ccnc6c5CCC(=O)N6)cc4C3)n2)ccn1 (stereo not shown)
[out] 81.2
